Target: OATP1B1 (Homo sapiens, UniProt Q9Y6L6)
Construct: expressed in transfected cells; host or cells: A431
Assay: Inhibition of OATP1B1-mediated disulfopyrene uptake in A431 cells
Assay type: cell-based
Conditions: disulfopyrene 10 μM, 10 min, HBSS pH 7.4, A431-OATP1B1 cells
measurement_label: IC50 (µM)
Respond with the bare value in µM.

Lab note: O=c1c(O)c(-c2cc(O)c(O)c(O)c2)oc2cc(O)cc(O)c12 gave IC50 of 6.4

---

Molecular target: OATP2B1 (Homo sapiens, UniProt O94956)
Construct: expressed in transfected cells; host or cells: A431
Sequence (O94956 whole entry): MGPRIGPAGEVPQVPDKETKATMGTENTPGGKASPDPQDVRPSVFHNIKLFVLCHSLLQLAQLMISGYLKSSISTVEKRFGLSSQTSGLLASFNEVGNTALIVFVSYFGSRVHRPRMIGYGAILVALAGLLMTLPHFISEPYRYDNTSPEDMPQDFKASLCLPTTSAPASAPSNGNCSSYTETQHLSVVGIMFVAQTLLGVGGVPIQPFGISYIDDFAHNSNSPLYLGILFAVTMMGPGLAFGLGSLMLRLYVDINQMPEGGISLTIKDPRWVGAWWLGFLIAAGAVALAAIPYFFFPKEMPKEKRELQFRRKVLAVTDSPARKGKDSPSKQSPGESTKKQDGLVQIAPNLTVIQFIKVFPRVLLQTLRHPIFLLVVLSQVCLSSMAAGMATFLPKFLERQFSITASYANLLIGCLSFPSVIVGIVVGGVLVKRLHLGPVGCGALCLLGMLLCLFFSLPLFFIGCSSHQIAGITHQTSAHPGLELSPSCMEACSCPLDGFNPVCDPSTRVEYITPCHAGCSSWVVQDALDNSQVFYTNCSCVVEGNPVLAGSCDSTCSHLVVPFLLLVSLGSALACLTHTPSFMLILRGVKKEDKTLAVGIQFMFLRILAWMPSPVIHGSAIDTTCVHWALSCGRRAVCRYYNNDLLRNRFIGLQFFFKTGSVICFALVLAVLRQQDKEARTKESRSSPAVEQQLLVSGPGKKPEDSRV
Experiment: Uptake of flavonoids by A431-OATP2B1 versus mock cells (APB fluorescence)
Format: cell-based
Conditions: conclusion from uptake studies
measurement_label: substrate of OATP2B1

O=c1c(O)c(-c2cc(O)c(O)c(O)c2)oc2cc(O)cc(O)c12; not substrates
O=C1c2c(O)cc(O)cc2O[C@H](c2cc(O)c(O)c(O)c2)[C@H]1O; not substrates
O=C1c2c(O)cc(O)cc2OC(c2cc(O)c(OS(=O)(=O)O)c(O)c2)C1O (stereo not shown) [A4′S, ampelopsin‐4′‐O‐sulfate]; not substrates

---

System: CYP2C19
Construct: purchased Merck (Darmstadt, Germany)
Assay: CYP2C19 assay ((S)‐mephenytoin hydroxylation), CypExpress human kit
Assay type: biochemical
Conditions: probe (S)‐mephenytoin, 20 μM flavonoid, 5 μM substrate, read-out: inhibitory action on CYP2C19‐mediated (S)‐mephenytoin hydroxylation
measurement_label: inhibition at 20 μM
# include the unit after the value

The molecule O=C1c2c(O)cc(O)cc2O[C@H](c2cc(O)c(O)c(O)c2)[C@H]1O , when measured on CYP2C19, yielded inhibition at 20 μM of 5%

---

Test system: human serum albumin (HSA)
Construct: purchased Merck (Darmstadt, Germany) A1653
Experiment: Ultrafiltration: displacement of the Site I marker warfarin from HSA
Type: binding
Settings: flavonoid 20 μM, warfarin 1 μM, HSA 5 μM, PBS pH 7.4
measurement_label: effect on the filtered fraction of warfarin

O=C1c2c(O)cc(O)cc2OC(c2cc(O)c(OS(=O)(=O)O)c(O)c2)C1O (stereo not shown) [A4′S, ampelopsin‐4′‐O‐sulfate]; not affected
O=C1c2c(O)cc(O)cc2O[C@H](c2cc(O)c(O)c(O)c2)[C@H]1O; not affected
O=c1c(O)c(-c2cc(O)c(O)c(O)c2)oc2cc(O)cc(O)c12; moderate increases
O=c1c(O)c(-c2cc(O)c(O)c(OS(=O)(=O)O)c2)oc2cc(O)cc(O)c12 [M3′S, myricetin‐3′‐O‐sulfate]; moderate increases

---

Molecular target: OATP1B1 (Homo sapiens)
Construct: expressed in transfected cells; host or cells: A431
Sequence (Q9Y6L6 1-691): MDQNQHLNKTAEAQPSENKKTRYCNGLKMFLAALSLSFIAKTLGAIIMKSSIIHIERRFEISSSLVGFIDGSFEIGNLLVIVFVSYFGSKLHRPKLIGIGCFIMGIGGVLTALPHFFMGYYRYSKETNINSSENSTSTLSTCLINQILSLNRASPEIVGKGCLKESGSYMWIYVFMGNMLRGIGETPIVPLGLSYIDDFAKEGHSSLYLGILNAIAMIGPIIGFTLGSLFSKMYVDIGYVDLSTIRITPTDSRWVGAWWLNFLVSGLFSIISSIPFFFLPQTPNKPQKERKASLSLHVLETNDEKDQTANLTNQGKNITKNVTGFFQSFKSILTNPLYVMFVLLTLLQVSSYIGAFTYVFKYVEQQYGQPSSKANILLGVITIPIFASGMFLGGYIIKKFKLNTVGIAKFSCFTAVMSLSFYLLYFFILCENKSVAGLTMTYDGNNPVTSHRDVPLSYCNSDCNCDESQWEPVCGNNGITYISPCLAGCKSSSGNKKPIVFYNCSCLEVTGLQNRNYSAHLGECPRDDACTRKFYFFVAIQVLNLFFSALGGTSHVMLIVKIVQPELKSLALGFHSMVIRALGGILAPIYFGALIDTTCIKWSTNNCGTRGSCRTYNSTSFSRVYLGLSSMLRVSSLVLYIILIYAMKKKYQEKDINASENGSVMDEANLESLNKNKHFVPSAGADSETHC
Experiment: Uptake of flavonoids by A431-OATP1B1 versus mock cells (APB fluorescence)
Assay type: cell-based
Conditions: conclusion from uptake studies
measurement_label: substrate of OATP1B1

O=c1c(O)c(-c2cc(O)c(O)c(O)c2)oc2cc(O)cc(O)c12 [MYR, myricetin]; not substrates
O=C1c2c(O)cc(O)cc2O[C@H](c2cc(O)c(O)c(O)c2)[C@H]1O [AMP, ampelopsin]; not substrates
O=C1c2c(O)cc(O)cc2OC(c2cc(O)c(OS(=O)(=O)O)c(O)c2)C1O (stereo not shown) [A4′S, ampelopsin‐4′‐O‐sulfate]; not substrates
